- Tested on: 34 cancer cell lines
- protocol notes: Drug combination screen with M4076 in 34 cancer cell lines
- Assay type: cell-based, human
- assay conditions: 1 μmol/L M4076, 120 h, 34 cell lines
Counter-ions that a name gives are not always drawn.
experimental endpoint: Median bliss excess in combination with M4076

See these solved cases before continuing.
CC[C@@]1(O)C(=O)OCc2c1cc1n(c2=O)Cc2cc3c(CN(C)C)c(O)ccc3nc2-1 [topotecan] : > 0.1
NC(=O)c1cccc2cn(-c3ccc([C@@H]4CCCNC4)cc3)nc12 [niraparib, Niraparib tosylate] : > 0.1

Give Median bliss excess in combination with M4076 for each of the items listed below.
1. O=C(c1cc(Cc2n[nH]c(=O)c3ccccc23)ccc1F)N1CCN(C(=O)C2CC2)CC1 [olaparib]
2. Cn1ncnc1[C@H]1c2n[nH]c(=O)c3cc(F)cc(c23)N[C@@H]1c1ccc(F)cc1 [talazoparib]
3. C[C@]1(c2nc3c(C(N)=O)cccc3[nH]2)CCCN1 [veliparib]
4. CNCc1ccc(-c2[nH]c3cc(F)cc4c3c2CCNC4=O)cc1 [rucaparib, rucaparib camphorsulfonate]

Response:
> 0.1
> 0.1
> 0.1
> 0.1
